Cited source: paper PMC3479967

MEASURED_ON: UGT2B15 (Homo sapiens, UniProt P54855)
Sequence (P54855 24-530): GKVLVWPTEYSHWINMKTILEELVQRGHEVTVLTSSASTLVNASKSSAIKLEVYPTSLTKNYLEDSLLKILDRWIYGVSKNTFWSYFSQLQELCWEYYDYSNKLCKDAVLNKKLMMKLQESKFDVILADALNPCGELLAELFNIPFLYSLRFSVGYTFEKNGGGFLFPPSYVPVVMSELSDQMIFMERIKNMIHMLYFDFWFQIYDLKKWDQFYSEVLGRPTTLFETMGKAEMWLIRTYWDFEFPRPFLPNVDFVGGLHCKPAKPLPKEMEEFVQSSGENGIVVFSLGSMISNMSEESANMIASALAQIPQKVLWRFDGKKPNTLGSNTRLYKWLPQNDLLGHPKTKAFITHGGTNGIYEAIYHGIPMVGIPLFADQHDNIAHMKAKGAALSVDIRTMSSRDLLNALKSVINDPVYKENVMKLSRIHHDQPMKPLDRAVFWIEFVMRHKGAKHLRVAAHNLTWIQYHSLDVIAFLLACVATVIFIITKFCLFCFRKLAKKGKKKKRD
PROCEDURE_TEXT: Inhibition of recombinant UGT2B15 activity (4-MU glucuronidation)
PROPERTY_NAME: IC50

INSERT INTO results (compound, measured_on, property_name, observed_measurement) VALUES
  ('COc1ccc(-c2oc3c(CC=C(C)C)c(O[C@@H]4O[C@H](CO)[C@@H](O)[C@H](O)[C@H]4O)cc(O)c3c(=O)c2O)cc1 [Icariside I]', 'UGT2B15 (Homo sapiens, UniProt P54855)', 'IC50', '> 100 µM'),
  ('COc1ccc(-c2oc3c(CC=C(C)C)c(O)cc(O)c3c(=O)c2O)cc1 [Icaritin]', 'UGT2B15 (Homo sapiens, UniProt P54855)', 'IC50', '> 100 µM'),
  ('COc1ccc(-c2oc3c(CC=C(C)C)c(O[C@@H]4O[C@H](CO)[C@@H](O)[C@H](O)[C@H]4O)cc(O)c3c(=O)c2O[C@@H]2O[C@@H](C)[C@H](O)[C@@H](O)[C@H]2O)cc1 [Icariin]', 'UGT2B15 (Homo sapiens, UniProt P54855)', 'IC50', '> 100 µM');

====

MEASURED_ON: UniProtKB P06133
Sequence (P06133 24-528): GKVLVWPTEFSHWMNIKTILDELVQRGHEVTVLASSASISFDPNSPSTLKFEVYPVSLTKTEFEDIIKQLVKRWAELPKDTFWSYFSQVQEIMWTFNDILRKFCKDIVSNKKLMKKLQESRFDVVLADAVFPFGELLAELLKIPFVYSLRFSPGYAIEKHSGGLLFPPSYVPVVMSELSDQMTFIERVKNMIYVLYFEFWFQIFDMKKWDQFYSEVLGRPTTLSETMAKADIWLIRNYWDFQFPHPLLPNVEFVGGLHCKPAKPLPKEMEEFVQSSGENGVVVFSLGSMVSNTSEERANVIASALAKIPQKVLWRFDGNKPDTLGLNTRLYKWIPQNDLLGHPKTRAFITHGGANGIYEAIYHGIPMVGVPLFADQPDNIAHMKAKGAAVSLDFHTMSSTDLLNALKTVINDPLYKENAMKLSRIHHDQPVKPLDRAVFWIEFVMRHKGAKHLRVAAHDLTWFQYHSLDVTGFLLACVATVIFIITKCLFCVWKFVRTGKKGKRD
PROCEDURE_TEXT: Inhibition of recombinant UGT2B4 activity (4-MU glucuronidation)
pIC50: −log10 of the molar value.
PROPERTY_NAME: pIC50

INSERT INTO measurements (compound, property_name, observed_measurement) VALUES
  ('COc1ccc(-c2oc3c(CC=C(C)C)c(O[C@@H]4O[C@H](CO)[C@@H](O)[C@H](O)[C@H]4O)cc(O)c3c(=O)c2O)cc1 [Icariside I]', 'pIC50', '< 4.00'),
  ('COc1ccc(-c2oc3c(CC=C(C)C)c(O[C@@H]4O[C@H](CO)[C@@H](O)[C@H](O)[C@H]4O)cc(O)c3c(=O)c2O[C@@H]2O[C@@H](C)[C@H](O)[C@@H](O)[C@H]2O)cc1 [Icariin]', 'pIC50', '< 4.00'),
  ('COc1ccc(-c2oc3c(CC=C(C)C)c(O)cc(O)c3c(=O)c2O)cc1 [Icaritin]', 'pIC50', '< 4.00');
